# Assay details: soluble fraction after stress (log2 fold change); higher = more stays soluble; pooled small domains, quantitative proteomics
# Protocol conditions: stress: pH 4
Binary classification by soluble fraction (log2), with -0.1 as an inclusive lower bound for true (1); all other cases are false (0).

Construct sequence: HMEFTVFMNSAGGSKLQVVKTVKELTGLGLKEAKAIVDGSPGPVKEGLSKADAEAMLAKLQEAGADVEL
Label: false (0)
--
Construct sequence: HMFDLSQRQEQIIEIVRKHGPITGEKIADLLYVTRAALRPDLAILTMSGYLEAKPRVGYTYK
Label: true (1)
--
Construct sequence: HMDQDLGFLINKYFELGKDYNTLVEIYEKIKEYIASIDKKMLEYTKNFTIEQLKKWLDDGTINNIILTLG
Label: false (0)
--
Construct sequence: HMQMGLNEAYRVLHVSPDAPWREVQSAYKERMAKSHPDKVSHLGEELQEKAKELTVEINKAYNTIKRYKK
Label: true (1)
--
Construct sequence: HMKNEQESIAQKLYEAALKNDFVTIQEIQSGGYRLRNDDLTHMRESGVQSNTLIAIQKIFGL
Label: false (0)
--
Construct sequence: HMTPGPYETLKPAPLGSYIEPKIGFATAIEIARKEAVQLGIKTEAGGIWYGGDFPFYNVSFFDPDD
Label: false (0)
--
Construct sequence: HMNGGPHYLRDVRTSLGLSQADLAKAVGTSANMIHYLESGERALTLKWIRRISEALNVSPMRLIN
Label: true (1)
--
Construct sequence: HMPSLILADEPTGNLDSRNSSEVIALLKNASKRYAQTIIMITHNRSIAQSADRVLQVSDGVLTDMG
Label: true (1)

###

# Assay details: soluble fraction after stress (log2 fold change); higher = more stays soluble; pooled small domains, quantitative proteomics
# Protocol conditions: stress: pH 4
Binary classification by soluble fraction (log2), with -0.7 as an inclusive lower bound for y; all other cases are n.

Construct sequence: HMSTMTDAQRHLFANKLSQLPEMGKYSHGTESYQQFAVRIAEMLQTPKKFKELYPYLQKVGFKA
Label: y

Construct sequence: HMATPAFEMYKVRRGDTPAGLAKEWGFPDMASFYRINPDARSDWKRGLQLVKPMNEMAVLQATA
Label: y

Construct sequence: HMGFDTVVEKVLGLITSRPMTSRDIQMTLGRSREHTSRLMNRLYKEGLVDRNTSSKPFSYIITEKGREKI
Label: y

Construct sequence: HMPVVKIPFILTEGPSSITKVIEIDADEILELKDVFQEDDKLWSINQIEMNDGRYVKHSDASLIVRASALR
Label: y

Construct sequence: HMNPLDGTSVHPESYEAAEKLLKKQGFSLEDISGGKLTGLSLTIKDYARLAKELEIGEITLRDIVKELEK
Label: n

Construct sequence: HMDNAILQELYDYYKEDPSLSQSELIISMLTRIQEAVGYVSKDVQEEVARLAGVNRGYVAAIIKNLPHL
Label: n

Construct sequence: HMYRWSEEIFEKLRSDIMAALDLSREQNDEEIYRFIETEVEEYSQNNLLTLKEREQLEHLLFNSL
Label: n

Construct sequence: HMPLLSPRQLDVLSLAAGGLSDAQIAGRLVLSESTVRVHFHHIIEKLGVTDRAGAIAWYEQSRS
Label: y

###

# Assay details: soluble fraction after stress (log2 fold change); higher = more stays soluble; pooled small domains, quantitative proteomics
# Protocol conditions: stress: pH 4
Binary classification by soluble fraction (log2), with -0.3 as an inclusive lower bound for Y; all other cases are N.

Construct sequence: HMTPKVTVPDVTGQTFSSAKQILESLGFTVKQQGSTDETDQVIDQNPTSGEADKGATITLTTKSS
Label: Y
//
Construct sequence: HMGMSQQKQSSTVRIIMQDISDANEGLMKMSQIIDAALAEGISETIVRNAISNLHRGGTIYESQTGTYQW
Label: N
//
Construct sequence: HMDEYTAVDSRLDLELAMKRLKPEEAEVLRLVFDYGLPQRAIAERLGVSQMSVSRMQRRAIGKLKRWLSDN
Label: N
//
Construct sequence: HMNTELFTKNLFNKLEVLLGEKNWKSKTAQLLNISSDAFYKKIRNESQLNLHELLLIKDTFKISIDALLDE
Label: N
//
Construct sequence: HMDFSNVNFSQVSDSELDLLMRRASAQGYTQFDLLKIARAQGLTQAEIEKLDKRFKSAETVAYVAENA
Label: Y
//
Construct sequence: HMPSQLPLAFARRHGVLLRGFSNGLAQLTVRPEVSTLSLAETRRHLGVPLALEKVTTERFDQLLREAYEA
Label: Y
//
Construct sequence: HMDPEQLKIAINTKMPFGKYSGRPLLLLPEPYLVWFKQQGFPDSKLGSQLAMMYEVKLNGLEQMLMPLL
Label: N
//
Construct sequence: HMTLDEFTDLMNLFKTGHIEQKPVILYGYNYWTSLKSWFEFNNMKFPEMYIDGIINTVDEFKILYNKIF
Label: N
//
Construct sequence: HMEYSNLGEALRRLSEIDLQIILLKYSHGFSIKEISKILDIKEVNLYKRNKRALNKLKKILAEMEVLSN
Label: Y
//
Construct sequence: HMGQKASEVEKIFVELQQQIIRGDLPPGYRLVESQIAAQFGVSRTPARLAIERLATAGLVAHETNRGATVH
Label: N
//
Construct sequence: HMNHLLYPNPANNFIWIKNSTSNTAVIYNLQGVMSKVEVSEEGKIDISRFSPGLYMIKQGERIYKFTIA
Label: N
//
Construct sequence: HMSASIAEGTVIMLENTTNIRSGMSEDSSKVGTAYAGEKVTVVMSYAEGWTKVKWNGETGYIKTALLQL
Label: N
//
Construct sequence: HMVVRKHDRYYTPEHRKLLMDTYERTNKYPTKQDMSELAKIIGVLPIKILWWYTHRRRQDRRKGEESSSP
Label: N
//
Construct sequence: HMINRMGRLVEALSHMIANTKPGARLPSEPELARQLGVSRATLREAMRTFEAQGMIHRRQGAGTFVVH
Label: Y
//
Construct sequence: HMEYEETMSQIKHNLNLLPRQQRVIIEMAKFDELTPAEIAKQLGISVQTVRNQLSTGLKKLRQLL
Label: N
//
Construct sequence: HMGVPVTAPMPGKVLKVTVSVGAAVKNGDLVLVLEAMKMENEIFATANGVVKEIRSREGDTVNSGDVMMVI
Label: N
//
Construct sequence: HMRQGHLDLLRQIHALPPSTREVVYLRAFGGLSFREIGDVLGRTETWARVTFYRGKEALRKG
Label: Y

###

# Assay details: soluble fraction after stress (log2 fold change); higher = more stays soluble; pooled small domains, quantitative proteomics
# Protocol conditions: stress: pH 4
Binary classification by soluble fraction (log2), with -0.4 as an inclusive lower bound for criterion met; all other cases are criterion not met.

Construct sequence: HMRSPIWKSITATLTAEIAGGQYRAGDKLPTEAELSQRFGVNRHTLRRALAEMAGAGLVVARRGAGVFVQG
Label: criterion met
--
Construct sequence: HMAATNVKVPDLKGWDYNNAVGKYGDKLSFVKKSIYSDSVSKGIIIYNARVGETVAQGTTIEVTVSLGPKG
Label: criterion met
--
Construct sequence: HMVMNKQEFLKILRDTLQSQLSSRETENHVEYYRTYIEEQMREGKTEIEILDVLGDPRLIARTILET
Label: criterion met
--
Construct sequence: HMAKITERVMGSAALRDYDPNYLPDEVLKALDGYPPFDGYVYKDGILYARVKIGDTFFIIPPI
Label: criterion not met
--
Construct sequence: HMRTIGDSVYEKIKYDIVHLTLKPGEKLSEASLAEKYGISKAPIRVALRKLQEEGLIVIRPQSGSIVSP
Label: criterion met
--
Construct sequence: HMVRKGEINFDQLSVRARNALRNMNILFEKEILKLTEYDLKSIPNLGVKTTNELLSYIKRLQTNQKEE
Label: criterion not met
--
Construct sequence: HMDEPSITYGKVKVQTSLNVRQGPGTQYARIGSLGPNVRIQILGQEGQWYKIKYGNLQGYVHSDYVELEK
Label: criterion met
--
Construct sequence: HMTVLPTEQDAKALVGLGEEEAAKIVEGNGWTYRIGSRDGEQFMLTEDFVTSRLTLGIEKAIVMTATI
Label: criterion not met

###

Consider the following sequences and their measured soluble fraction (log2) readings.
# Assay details: soluble fraction after stress (log2 fold change); higher = more stays soluble; pooled small domains, quantitative proteomics
# Protocol conditions: stress: pH 4
Result type: soluble fraction (log2)

Construct sequence: HMDTNVKLLSPKQADFFASKLANNQNFSSKFAKVGEDMQPFIERISSELQQDISQVIVYMPYLLESGFKQ
Recorded measurement: -0.126

Construct sequence: HMNSEEINDVRKAVDELPTHLREILLLNYFQQMSYVQISDSLEIPLGTVKSRLHAAVAAFRNAWQSSQEE
Recorded measurement: -0.154

Construct sequence: HMEKLNYSISNEEQGQRIDKYLSLMIEGKSRSFIQGLIDDKKVMANGKVIKSNYKLKNNDEITVEMPDPI
Recorded measurement: 0.0918

Construct sequence: HMDYVKTLGETINVRVAASTDADIYKLLPGGEILNRVGYNEEWTKVMVDGSTFYVYSEYVIQTEPPA
Recorded measurement: -1.25

Construct sequence: HMLSVTLTVLPQQAGERLDAFAAAESTLSRSAAAKLIEDGQITVNGARAAKNYRLRAGDVIEIDEPEPI
Recorded measurement: 0.194

Construct sequence: HMDGIRLYPGLMIEHKNFGRGQVVSVNRERGTFTAFFGKNGTRTLTIQILKTDTVRPLASQKAGK
Recorded measurement: -0.405

Construct sequence: HMKEQLLLGFKVRSLRGIDLGFVKFIEGSAFQSFLKTDLTIIPNVPNYVKKIDNVKKIILVDWESD
Recorded measurement: -1.54

Construct sequence: HMDKVSYALGLGIGRQLTDMGAKDLNIDDFAQAIKDVLAGGEVKLSDAEAQTIVRNFFDEQEKKQRA
Recorded measurement: -0.637
